- experimental_target: T1, human G-protein-coupled receptor family C group 5 member D (GPRC5D) (human, UniProt Q9NZD1 1-345)
- T1 construct: whole, on cells; also called human GPRC5D protein
- T1 sequence (Q9NZD1 whole entry): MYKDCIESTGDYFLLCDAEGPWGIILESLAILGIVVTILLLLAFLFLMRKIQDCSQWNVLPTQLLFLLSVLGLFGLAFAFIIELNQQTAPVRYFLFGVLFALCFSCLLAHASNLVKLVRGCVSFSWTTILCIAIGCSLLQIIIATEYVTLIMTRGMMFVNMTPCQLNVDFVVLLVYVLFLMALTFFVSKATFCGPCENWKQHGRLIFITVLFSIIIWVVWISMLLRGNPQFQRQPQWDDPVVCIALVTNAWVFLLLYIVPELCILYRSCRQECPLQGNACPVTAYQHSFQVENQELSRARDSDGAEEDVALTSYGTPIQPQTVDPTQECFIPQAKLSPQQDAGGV
- assay_details: FACS, CHO-K1/GPRC5D
measured_parameter: Span

1. 37-H3L1 (antibody, V domains shown, humanized 37B9C4, VH v3 x VL v1) VH: EVQLVESGGGLVQPGGSLRLSCAASGFTFSDYWMNWVRQSPGKGLEWVAEIRLKSNNYATHYAESVKGRFTISRDDSKSSVYLQMNSLRAEDTAVYYCTRPLLWFRRYYAMDYWGQGTLVTVSS VL: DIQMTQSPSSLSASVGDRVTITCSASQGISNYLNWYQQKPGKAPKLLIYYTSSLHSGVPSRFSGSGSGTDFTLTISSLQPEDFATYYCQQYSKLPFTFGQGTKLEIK
173000
2. 37-H3L3 (antibody, V domains shown, humanized 37B9C4, VH v3 x VL v3) VH: EVQLVESGGGLVQPGGSLRLSCAASGFTFSDYWMNWVRQSPGKGLEWVAEIRLKSNNYATHYAESVKGRFTISRDDSKSSVYLQMNSLRAEDTAVYYCTRPLLWFRRYYAMDYWGQGTLVTVSS VL: DIQMTQSPSSLSASVGDRITITCSASQGISNYLNWYQQKPGKTVKLLIYYTSSLHSGVPSRFSGSGSGTDYTLTISSLQPEDFATYYCQQYSKLPFTFGSGTKLEIK
173000
3. 37-H2L1 (antibody, V domains shown, humanized 37B9C4, VH v2 x VL v1) VH: EVQLVESGGGLVQPGGSLRLSCAASGFTFSDYWMNWVRQSPGKGLEWVAEIRLKSNNYATHYAESVKGRFTISRDNAKSSLYLQMNSLRAEDTAVYYCTRPLLWFRRYYAMDYWGQGTLVTVSS VL: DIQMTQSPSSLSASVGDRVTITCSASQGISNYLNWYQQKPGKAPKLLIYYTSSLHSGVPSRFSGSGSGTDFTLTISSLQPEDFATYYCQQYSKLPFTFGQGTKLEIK
166000
